Please respond with reported viability at 28.5 h, 10 µM for every item in the list.
- assayInfo: in vitro
- settings: human, hela cells, % viability
One number for each entry, in %.

Solved entries (count: 3):
COCCc1nc(-c2csc(CN(C)C)n2)n(Cc2ccccc2C)n1 = 107
COC(=O)c1cnc(Sc2ccc(Cl)cc2)nc1C(F)(F)F = 95.9
CC(NC(=O)CCc1cccnc1)c1nc(-c2ccncc2)cs1 (stereo not drawn) = 90.8

Provide reported viability at 28.5 h, 10 µM for each item, in the same order as listed.
1. O=C1NC(=S)N/C1=C/c1cc2c(cc1Cl)OCO2
2. Cc1cc(C(=O)N2CCn3cc(C(F)(F)F)nc3C2)on1
3. O=[N+]([O-])c1cc(CN2CCN(c3ccccc3)CC2)c(O)c2ncccc12
4. CCc1ccc2c(c1)C(CCNC(=O)c1c(C)noc1C(F)F)C(=O)N2 (stereo not drawn)
5. Cc1ccc(C)c(-n2nnnc2SC(C)C(=O)N2CCCC2)c1 (stereo not drawn)
6. CCN1CCN(C(=O)CN(Cc2ccc(F)cc2)S(=O)(=O)c2ccccc2)CC1

result:
1: 91.5; 2: 101; 3: 99.6; 4: 95.1; 5: 79.9; 6: 96.8

###

- assayInfo: in vitro
- settings: human, hela cells, % viability
assayEndpoint: viability at 28.5 h, 10 µM (%)
Answers are plain numbers, in %.

COc1ccc(NC(=O)C2CC3CCC2C3)cc1S(=O)(=O)Nc1ccc(Cl)cc1 (centres unmarked) = 79.4
Clc1ccc(-n2c(SCc3nc4ccccc4[nH]3)nnc2-c2ccncc2)cc1 = 100

Batch request: viability at 28.5 h, 10 µM for each of the following molecules.
1. OCCNCCNCc1ccc(-c2ccccc2)cc1 [CBK278269C]
2. OCc1ccc(CN2C[C@H](O)C[C@H]2c2nc(-c3cnccn3)no2)o1
3. CCCC(=O)Nc1ccc(C(=O)Nc2ccccc2C(=O)O)cc1

result:
1: 115; 2: 91.9; 3: 121

###

- assayInfo: in vitro
- settings: human, hela cells, % viability
Just a reminder that ties go to false: only viability at 28.5 h, 10 µM strictly below 90% counts as true.

Consider the following illustrative entries.
Cc1ccc(SCCNC(=O)C(C)Sc2ccc(Cl)cc2)cc1 (stereo not shown) [CBK264104] = false
Cc1ccc2oc(CN3CCC(O)(c4cccnc4)CC3)c(C)c2c1 [CBK282816] = false
O=C(c1cc[nH]c1)N1CCC2(CCN(Cc3ccccc3)CC2)C1 [CBK136756] = true
CC1CCCN(c2ncnc3c2[nH]c2ccccc23)C1 (stereo not shown) [CBK287948] = false
O=C1CC(c2noc(-c3ccncc3)n2)CN1c1ccccc1 (stereo not shown) [CBK288043] = true
COC1C(O)C(CO)OC1n1cc(F)c(=S)[nH]c1=O (stereo not shown) [CBK201168] = false

query: Below 90% on viability at 28.5 h, 10 µM? Entry CCCc1n[nH]c(-c2c(F)cccc2F)c1C(=O)OCC [CBK113546]
result: false

query: Hi there! Is viability at 28.5 h, 10 µM for O=C(NCc1ccc(Cl)cc1)c1cnc(-c2cccc(C(F)(F)F)c2)c(-c2ccncc2)c1 [CBK037607] below 90%, do you know?
result: true

query: Hi there! Is viability at 28.5 h, 10 µM for COc1ccc(-c2nc(-c3ccoc3)cnc2N)cc1OC [CBK063964] below 90%, do you know?
result: false

query: In the record for CC(=O)Nc1nc(CN2CCOC(c3ccc(F)cc3)C2)cs1 (stereo not shown) [CBK305591] , is viability at 28.5 h, 10 µM less than 90%?
result: false

query: Does CCOc1ccc(CNc2ccc(C3c4ccsc4CCN3C(C)=O)cc2)cc1 (stereo not shown) [CBK286451] have viability at 28.5 h, 10 µM strictly under 90%?
result: false

Reference for the values: paper PMC12040169
